Catalogue of compounds with associated melting point
All answers are understood in °C, so give the number only.

• Cn1cncc1CC1(C)COc2c(cn(C)c2C(=O)Nc2ccc(F)c(F)c2)S(=O)(=O)N1 (centres unmarked) = 265.5
• Cc1sc2c(c1C(=O)Nc1ccc(F)c(F)c1)OCC(C)NS2(=O)=O (centres unmarked) = 221.5

Turning to the following compound.
melting point for Cn1cc2c(c1C(=O)Nc1ccc(F)c(F)c1)CC[C@@H](C(C)(C)O)NS2(=O)=O ?
217.7

----------
- method: Cytotoxicity in HepG2 cells, Resazurin assay
- protocol conditions: human, HepG2 cells, TOX-HepG2-4 d CC50 (μM), HepG2 cells incubated for 4 days, viability by Resazurin assay
assay metric: CC50 at 4 days

- CC1NS(=O)(=O)c2cn(C)c(C(=O)Nc3ccc(F)c(F)c3)c2OC1C (stereo not drawn) [Compound 28]: > 25 µM

Which CC50 at 4 days is reported for this compound? Cn1cc2c(c1C(=O)Nc1ccc(F)c(F)c1)OCC1(CC1)NS2(=O)=O [Compound 19]
> 25 µM

One more compound: Cc1cc(NC(=O)c2c3c(cn2C)S(=O)(=O)N[C@@H](C(O)C2CC2)CO3)ccc1F (single isomer, unassigned) [Compound 206a]
> 25 µM

Lookup Cn1cc2c(c1C(=O)Nc1ccc(F)c(F)c1)CCNS2(=O)=O [Compound 13]
> 25 µM

Input Cc1cc(CC2(C)COc3c(cn(C)c3C(=O)Nc3ccc(F)c(F)c3)S(=O)(=O)N2)no1 (racemic) [Compound 162]
> 25 µM

Next compound: Cn1ccc(C2(C)COc3c(cn(C)c3C(=O)Nc3ccc(F)c(F)c3)S(=O)(=O)N2)n1 (racemic) [Compound 192]
> 25 µM

Follow-up entry: Cn1cc2c(c1C(=O)Nc1ccnc(C(F)F)c1)OCC(C)(C)NS2(=O)=O [Compound 158]
> 25 µM
